test system: OVCAR-4 ovarian; assay: NCI-60 one-dose screen, 48 h; details: 10 µM unless noted
This is part of a sample that, as a whole, favours compounds with a hit. Of some 83,000 tested, about 20% had one in any assay. The source made the active and inactive calls. Rule for the calls: active = growth percent below 10; inactive = the rest.
Could you please pick one outcome from this set? yes for active, no for inactive

Could you please tell me the result logged for COC(=O)c1c2c(c(C)[n+]([O-])c1C)C(=O)C(NCc1ccc(F)c(Cl)c1)=CC2=O in this assay? yes

Could you please tell me the result logged for COc1ccc(-c2nc3c(N)c(CO)c(C)nc3o2)cc1 in this assay? no

Could you please tell me the result logged for Cc1c2c(c(C)c3c1oc1cc(O)ccc13)C(=O)N(CCN1CCCCC1)C2=O in this assay? no

Could you please tell me the result logged for CC(=O)C(C)Cc1cc2c(cc1C)C(C)(C)CCC2(C)C (stereo not given) in this assay? no

Could you please tell me the result logged for COC(=O)c1ccc(C2Nc3ccc(S(=O)(=O)Nc4ccc(C)c(C)c4)cc3C3OCCC23)cc1 (stereo not given) in this assay? no

Could you please tell me the result logged for COc1ccc(/C=C/c2c(C(=O)/C=C/c3cccs3)c(C)nc3ccccc23)cc1 in this assay? no

Could you please tell me the result logged for COc1ccc(C(=NN=C(N)N)c2ccc(OC)cc2)cc1 in this assay? no

Could you please tell me the result logged for CCCCc1ccc(Nc2ccc(Nc3ccc(CCCC)cc3S(=O)(=O)O)c3c2C(=O)c2ccccc2C3=O)c(S(=O)(=O)O)c1 in this assay? no

Could you please tell me the result logged for CC(=O)c1ccc(NCC(=O)Nc2ccccn2)cc1 in this assay? no

Could you please tell me the result logged for COc1cc(/C=C/C(=O)c2ccc(Nc3nc(Nc4ccc(F)cc4)nc(Nc4ccc(Cl)cc4)n3)cc2)cc(OC)c1OC in this assay? no
